Listing of recorded Fold Shift of EC50 by entry.
TEST SYSTEM: PTHR1 (Rattus norvegicus, UniProt P25961)
Sequence (P25961 27-591): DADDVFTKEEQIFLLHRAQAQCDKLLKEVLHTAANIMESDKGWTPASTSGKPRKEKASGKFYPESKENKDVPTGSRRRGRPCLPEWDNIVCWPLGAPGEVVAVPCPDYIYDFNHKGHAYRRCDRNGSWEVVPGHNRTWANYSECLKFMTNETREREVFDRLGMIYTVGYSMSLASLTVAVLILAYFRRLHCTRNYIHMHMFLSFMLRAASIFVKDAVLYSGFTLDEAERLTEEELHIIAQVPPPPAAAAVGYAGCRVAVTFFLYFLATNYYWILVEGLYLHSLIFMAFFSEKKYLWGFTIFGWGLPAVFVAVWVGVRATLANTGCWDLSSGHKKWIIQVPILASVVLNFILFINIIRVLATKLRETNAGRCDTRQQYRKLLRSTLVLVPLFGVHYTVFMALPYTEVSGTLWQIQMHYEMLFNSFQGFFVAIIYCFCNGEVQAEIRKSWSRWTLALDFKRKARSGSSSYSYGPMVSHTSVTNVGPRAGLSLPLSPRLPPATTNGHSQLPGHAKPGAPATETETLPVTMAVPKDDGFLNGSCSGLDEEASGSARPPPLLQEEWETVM
ASSAY COMMENT: cAMP screening assay using DiscoveRX XS+ kit (PTH1-34 dose-response in UMR-106 cells)
MEASUREMENT SETUP: compound 10 μM, PTH1-34 EC50 compound/EC50 vehicle
PROPERTY: Fold Shift of EC50

[[record]]
seq_string = "TNAGASDTRQQYRKLL [Compound 76]"
value_measured = 16.9

[[record]]
seq_string = "TNAGRSDTRQQYAKLL [Compound 91]"
value_measured = 2

[[record]]
seq_string = "SSYFRRLHSTRNYIH [Compound 12]"
value_measured = 0.9

[[record]]
seq_string = "LYLHSLIFMAFFSEKKYLWGFT [Compound 34]"
value_measured = 1.2

[[record]]
seq_string = "LYLHSLIFMSFFSEKK [Compound 40]"
value_measured = 1.5

